Origin of values: PubChem BioAssay (NCI)

Test system: SNB-19 CNS
Assay: NCI-60 one-dose screen, 48 h
Conditions: 10 µM unless noted
Description: Growth inhibition of the SNB-19 human tumor cell line is measured as a screen for anti-cancer activity. Cells are grown in 96 well plates and exposed to the test compound for 48 hours. Compounds are tested at a single concentration, which is 10^-5 M for most compounds. The reported endpoint is percent growth (GI% or GIPRCNT), where numbers from 0 - 100% represent growth inhibition, and numbers from -100% - 0 represent cell death. For example, a value of 40 represents 60% growth inhibition. […]
This is part of a sample that, as a whole, favours compounds with a hit. Of some 83,000 tested, about 20% had one in any assay. Calls of active or inactive are those of the source. How the source made its calls: active means growth percent below 10; inactive means the rest.
Valid outcomes are listed here; reply with one: active, inactive

Example entries and their recorded answers appear below.
[[record]]
molecule = "COc1cc2c(c(OC)c1OC)C(=O)CC(c1cccc(NC(=O)c3cc(N)ccc3Cl)c1)O2 (centres undefined)"
assayed_system = "SNB-19 CNS"
group_label = "inactive"

[[record]]
molecule = "CC(=O)Nc1ccc(-n2cnc3cc(-c4ccc(O)cc4)ccc32)cc1C(F)(F)F"
assayed_system = "SNB-19 CNS"
group_label = "inactive"

[[record]]
molecule = "CN(C)c1nc(NCCNS(=O)(=O)c2ccc(C(=O)/C=C/c3ccc(Cl)cc3)cc2)nc(Nc2ccc(F)cc2)n1"
assayed_system = "SNB-19 CNS"
group_label = "active"

[[record]]
molecule = "COc1ccc2c(c1)c(-c1cc3nc(-c4cn(C)c5ncccc45)cc(N)n3n1)cn2C"
assayed_system = "SNB-19 CNS"
group_label = "inactive"

[[record]]
molecule = "Cn1cc(-c2nc(N)nnc2-c2c[nH]c3ccc(F)cc23)c2cccnc21"
assayed_system = "SNB-19 CNS"
group_label = "inactive"

[[record]]
molecule = "Cc1ccc(-c2nc(Nc3ccccc3S(N)(=O)=O)c3ccccc3n2)cc1"
assayed_system = "SNB-19 CNS"
group_label = "inactive"

[[record]]
molecule = "CC12CC[C@@H]3[C@]4(C)COC(c5cn[nH]c5-c5ccc(Cl)cc5)O[C@@H]4CC[C@@]3(C)[C@@H]1CC(C1=CCOC1=O)O2 (some centres undefined)"
assayed_system = "SNB-19 CNS"
group_label = "inactive"

[[record]]
molecule = "CCN(CC)C(=O)N/C(N)=N/c1nc2ccccc2s1"
assayed_system = "SNB-19 CNS"
group_label = "inactive"


Okay, next one:
Q: Assay result, entry "N#Cc1c(-c2cccc(O)c2O)cc(-c2ccc3ccccc3c2)[nH]c1=O" — outcome?
Ans: inactive
